# Assay summary: Metabolic stability in simulated intestinal fluid at pH 6.8 measured after 6 hrs by HPLC analysis
# Assay type: ADME
# Condition: read-out: Stability
Readout name: remaining at 6 h (%)

INSERT INTO measurements (compound, numeric_result) VALUES
  ('CCN(CC)/[N+]([O-])=N/OCOC(=O)/C=C/c1ccc(OC(=O)OCN2C(=O)SC(Cc3ccc(OCCN(C)c4ccccn4)cc3)C2=O)c(OC)c1 (stereo unspecified)', 87.6);

###

# Assay summary: Metabolic stability in simulated gastric fluid at pH 1.5 measured after 4 hrs by HPLC analysis
# Format: ADME
# Condition: read-out: Stability
Readout name: remaining at 4 h

INSERT INTO assay_data (compound, result) VALUES
  ('CCN(CC)/[N+]([O-])=N/OCOC(=O)/C=C/c1ccc(OC(=O)OCN2C(=O)SC(Cc3ccc(OCCN(C)c4ccccn4)cc3)C2=O)c(OC)c1 (stereo unspecified)', '97%');

###

Below: a set of entries, each annotated with reported inhibition at 1.25 µM.
# Test target: hERG (KCNH2) (Homo sapiens, UniProt Q12809)
# Sequence (Q12809 whole entry): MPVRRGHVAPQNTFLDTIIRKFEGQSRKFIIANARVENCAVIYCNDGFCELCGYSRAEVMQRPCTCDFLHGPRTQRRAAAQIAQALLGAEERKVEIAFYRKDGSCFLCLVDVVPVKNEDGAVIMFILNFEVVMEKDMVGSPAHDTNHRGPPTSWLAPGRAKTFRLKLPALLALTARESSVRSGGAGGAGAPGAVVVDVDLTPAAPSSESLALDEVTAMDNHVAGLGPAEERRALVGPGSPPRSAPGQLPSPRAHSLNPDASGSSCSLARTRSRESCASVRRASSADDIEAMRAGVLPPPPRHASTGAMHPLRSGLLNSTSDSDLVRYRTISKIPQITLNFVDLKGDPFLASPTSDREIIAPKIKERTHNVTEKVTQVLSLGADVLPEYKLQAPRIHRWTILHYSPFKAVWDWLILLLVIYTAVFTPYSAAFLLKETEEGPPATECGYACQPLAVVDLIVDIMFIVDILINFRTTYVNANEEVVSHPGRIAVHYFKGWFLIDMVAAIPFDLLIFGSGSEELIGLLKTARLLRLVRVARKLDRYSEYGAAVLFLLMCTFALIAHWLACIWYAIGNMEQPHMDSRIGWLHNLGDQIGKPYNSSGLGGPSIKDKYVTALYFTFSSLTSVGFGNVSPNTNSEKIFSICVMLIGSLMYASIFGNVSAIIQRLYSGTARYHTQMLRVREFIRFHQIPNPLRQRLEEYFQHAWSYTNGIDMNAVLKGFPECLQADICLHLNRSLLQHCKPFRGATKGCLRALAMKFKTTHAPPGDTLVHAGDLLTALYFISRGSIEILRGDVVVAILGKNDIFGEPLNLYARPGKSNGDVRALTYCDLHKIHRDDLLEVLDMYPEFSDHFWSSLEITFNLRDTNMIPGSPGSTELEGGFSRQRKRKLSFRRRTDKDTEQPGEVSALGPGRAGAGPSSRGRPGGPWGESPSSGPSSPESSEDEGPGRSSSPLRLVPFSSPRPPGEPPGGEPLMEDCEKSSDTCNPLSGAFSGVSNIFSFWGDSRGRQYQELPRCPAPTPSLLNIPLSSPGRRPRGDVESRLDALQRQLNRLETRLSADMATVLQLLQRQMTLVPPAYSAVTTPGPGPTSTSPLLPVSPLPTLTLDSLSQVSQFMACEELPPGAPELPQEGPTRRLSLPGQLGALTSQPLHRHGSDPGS
# Assay summary: Inhibition of human ERG expressed in CHO cells at 1.25 uM by patch clamp assay relative to control
# Type: cell-based
# Condition: CHO cells that express hERG
Readout name: inhibition at 1.25 µM (%)

INSERT INTO results (molecule, numeric_result) VALUES
  ('CCN(CC)/[N+]([O-])=N/OCOC(=O)/C=C/c1ccc(OC(=O)OCN2C(=O)SC(Cc3ccc(OCCN(C)c4ccccn4)cc3)C2=O)c(OC)c1 (configuration not stated)', 9.06),
  ('CN(CCOc1ccc(CC2SC(=O)NC2=O)cc1)c1ccccn1 (configuration not stated)', 9.38);

###

# Assay summary: Metabolic stability in human liver microsomes after 2 hrs in presence of NADPH by HPLC analysis
# Assay type: ADME, Microsome
# Condition: read-out: Stability
Readout name: remaining at 2 h (%)

INSERT INTO measurements (compound, readout_name, unit, numeric_result) VALUES
  ('CCN(CC)/[N+]([O-])=N/OCOC(=O)/C=C/c1ccc(OC(=O)OCN2C(=O)SC(Cc3ccc(OCCN(C)c4ccccn4)cc3)C2=O)c(OC)c1 (stereo unspecified)', 'remaining at 2 h', '%', 85.3);

###

# Assay summary: Metabolic stability in simulated intestinal fluid at pH 6.8 measured after 24 hrs by HPLC analysis
# Type: ADME
# Condition: read-out: Stability
Readout name: remaining at 24 h (%)

INSERT INTO results (molecule, numeric_result) VALUES
  ('CCN(CC)/[N+]([O-])=N/OCOC(=O)/C=C/c1ccc(OC(=O)OCN2C(=O)SC(Cc3ccc(OCCN(C)c4ccccn4)cc3)C2=O)c(OC)c1 (stereo unspecified)', 75.5);

###

# Test target: hERG (KCNH2) (Homo sapiens)
# Assay summary: Inhibition of human ERG expressed in CHO cells at 10 uM by patch clamp assay relative to control
# Format: cell-based
# Condition: CHO cells that express hERG
Collected inhibition at 10 µM values appear next to each entry.
Readout name: inhibition at 10 µM (%)

INSERT INTO assay_data (molecule, test_target, readout_name, numeric_result) VALUES
  ('CN(CCOc1ccc(CC2SC(=O)NC2=O)cc1)c1ccccn1 (configuration not stated) [ROSIGLITAZONE]', 'hERG (KCNH2) (Homo sapiens)', 'inhibition at 10 µM', 30.1),
  ('CCN(CC)/[N+]([O-])=N/OCOC(=O)/C=C/c1ccc(OC(=O)OCN2C(=O)SC(Cc3ccc(OCCN(C)c4ccccn4)cc3)C2=O)c(OC)c1 (configuration not stated)', 'hERG (KCNH2) (Homo sapiens)', 'inhibition at 10 µM', 18);
